# target-entity: T1, CRBN, Q96SW2;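 also: pooled lentiviral library of zinc finger degron-EGFP fusions in mCherry-positive Jurkat cells, FACS-sorted after compound exposure, with degron abundance counted by next-generation sequencing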
# T1 chain: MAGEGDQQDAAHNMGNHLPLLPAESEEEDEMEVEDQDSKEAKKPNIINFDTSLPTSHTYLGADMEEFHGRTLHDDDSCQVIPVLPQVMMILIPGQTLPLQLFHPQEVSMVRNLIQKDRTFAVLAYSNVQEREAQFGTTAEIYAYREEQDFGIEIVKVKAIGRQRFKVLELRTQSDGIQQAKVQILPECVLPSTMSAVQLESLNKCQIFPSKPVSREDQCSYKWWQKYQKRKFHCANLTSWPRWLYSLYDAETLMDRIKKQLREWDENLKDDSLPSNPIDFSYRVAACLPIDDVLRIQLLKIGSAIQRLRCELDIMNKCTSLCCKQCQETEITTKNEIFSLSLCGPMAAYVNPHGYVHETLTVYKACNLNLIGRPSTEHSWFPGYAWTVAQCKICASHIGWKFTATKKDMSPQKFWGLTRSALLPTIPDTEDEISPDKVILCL
# protocol: log2 fold change of degron read counts, EGFP-low vs EGFP+ sorted cells (limma voom), compound-induced degradation; higher = more compound-induced degradation of the degron-EGFP fusion; degrons are variants of IKZF1/3 zinc finger 2; compound dose not given here
# condition-summary: Jurkat; 18 h; compound: compound 19 (5-tert-butyl-thalidomide)
The full ranking holds about 8,300 sequences; the median of “log2 fold change of degron read counts, EGFP-low vs EGFP+ sorted cells (limma voom), compound-induced degradation” is about -1.1, and the highest 2% start at about 3.2. Only a selection was taken, and the highest values are over-represented in it overall.
endpoint-name: log2 fold change of degron read counts
Hey, just send me the number, nothing else.

If you can, please state the reported log2 fold change of degron read counts value of FVCPICGACFTQKGNLLRHIKL [46F_47V_49P_50I_52G_53A_54C_55F_67L_, Q9UKT9] .
0.0061

If you can, please state the reported log2 fold change of degron read counts value of FSCPICGACFTQKGNLLRHIKL [46F_47S_49P_50I_52G_53A_54C_55F_67L_, Q9UKT9] .
2.84

If you can, please state the reported log2 fold change of degron read counts value of FICPICGACFTQKGNLLRHIKL [46F_47I_49P_50I_52G_53A_54C_55F_67L_, Q9UKT9] .
-0.628

If you can, please state the reported log2 fold change of degron read counts value of FYCPICGACFTQKGNLLRHIKL [46F_47Y_49P_50I_52G_53A_54C_55F_67L_, Q9UKT9] .
3.5
